What pIC50 was measured for each of the following?
System: SARS-CoV-2 D614G variant
Format: cell-based
Answers are plain numbers, as −log10 of the molar value.

- compound: "COc1cc(Nc2ncc(F)c(Nc3ccc4c(n3)NC(=O)C(C)(C)O4)n2)cc(OC)c1OC [Tamatinib]"
  target entity: "SARS-CoV-2 D614G variant"
  pIC50: 6.94
- compound: "COc1cc2c(Nc3ccc(Br)cc3F)ncnc2cc1OCC1CCN(C)CC1 [Vandetanib]"
  target entity: "SARS-CoV-2 D614G variant"
  pIC50: 7.48

// moving on: another record for pIC50
Requested field: pIC50. Item: O=C(O)c1cc(/N=N/c2ccc(S(=O)(=O)Nc3ccccn3)cc2)ccc1O [Sulfasalazine] 4.70

This collection of values is drawn from paper PMC11411213.
